test system: HCC-2998 colon; test: NCI-60 one-dose screen, 48 h; conditions: 10 µM unless noted
About 83,000 compounds went through this panel and 20% of them were active in at least one assay; those are over-represented in the sample as a whole. The source made the active and inactive calls. The calls were made as follows: active = growth percent below 10; inactive = the rest.
Outcomes: Yes for active, No for inactive

molecule	category.label
C=CCN1C(=O)/C(=c2\sc3n(c2=O)C2C(NN=3)N(CC)C(=O)N2CC)c2ccccc21 (centres undefined)	Yes
O=C1CCCN1C(O)CCN(Cc1ccccc1)Cc1ccc(Cl)cc1 (centres undefined)	No
Cc1ccc([C@H]2c3[nH]c4ccccc4c3C[C@H]3C(=O)N(CCCCCCC(=O)NO)CC(=O)N23)cc1	No
O=C(N/N=C/c1ccccc1O)c1ccncc1	No
CC(C)(C)c1ccc(OC(=O)Nc2ccccc2)cc1	No
COc1ccc(C(=O)OC2C(OC3C(O)COC(O[C@H]4C[C@H]5[C@@H]6CC=C7C[C@@H](O)CC[C@]7(C)[C@H]6CC[C@]5(C)[C@H]4[C@H](C)C(=O)CCC(C)C)C3OC(=O)C(C)C)OCC(O)C2O)cc1 (some centres undefined)	No
CCOCCNc1ccc(S(=O)(=O)c2ccc(N)cc2)cc1N	No
COc1ccc(/C(C)=N/NC(=O)CSc2nc3ccccc3c(=O)n2CCc2ccc(S(N)(=O)=O)cc2)cc1	No
CCN(CC)c1ccc2c(cc1=O)[C@@H](NC(C)=O)CCc1cc(OC)c(OC)c(OC)c1-2	No
CS(=O)(=O)c1ccc(C(=O)N/N=C/c2ccc3c(c2)OCO3)cc1	No
COc1cc2c(=O)n(CCCN(C)C)c3c4cc[nH]c4ncc3c2cc1OC	No
N#Cc1ccc(-c2ccc(-c3cccs3)o2)cc1F	No
Nc1nc(N)c2cc(NCc3ccc(Cl)c(Cl)c3)ccc2n1	Yes
CCn1c(=O)c(C(=O)NCCCO)c(O)c2ccccc21	No
CC(C)[C@@]12C[C@@H](OC(=O)C3CO3)[C@@](C)(O1)[C@@H]1CC[C@@H](C)[C@H]1[C@@H]2OC(=O)/C=C/c1ccccc1 (some centres undefined)	No
O=c1c2cc(Cl)ccc2oc2ccc(OCCCCCN3CCCCC3)cc12	No
CCCCCc1c(C)[nH]c(/C=C2\N=C(c3ccc[nH]3)C=C2Oc2ccc(OC)cc2)c1C	Yes
C[C@@H]1CC2C3CCC4=CC(=O)C=C[C@]4(C)[C@@]3(Cl)[C@@H](O)C[C@]2(C)[C@@]1(OC(=O)c1ccco1)C(=O)CCl (some centres undefined)	No
CN1C(=O)C(C(=O)/C=C/c2ccccc2C(=O)O)C(=O)N(C)C1=O	No
